Read-out: ABC Transporter (ABCC3), ABCC3 (gene 8714)
Assay: LTEA_HepaRG_ABCC3: Life Technologies and Expression Analysis (LTEA) Assay for ABC Transporter (ABCC3) using HepaRG (AID 2283462)
Details: mRNA level, 48 h; actives raise or lower the signal
The source made the active and inactive calls. The calls were made as follows: active = hit-call score of the fitted dose curve at least 0.9, where 1 is the maximum; inactive = score below 0.9.
Just give me one of these, please: active, inactive

These recorded examples may help you get a feel for the data.
> print(dat)
                                   compound  qualitative.label
1  OC(c1ccc(Cl)cc1)(c1cncnc1)c1ccccc1Cl (configuration not stated)           inactive
2                   CCNc1nc(Cl)nc(NC(C)C)n1           inactive
3  CCc1nn(C)c(C(=O)NCc2ccc(C(C)(C)C)cc2)c1Cl             active
4                O=C(O)COc1nc(Cl)c(Cl)cc1Cl           inactive
5  CC(C)C1(C)N=C(c2nc3ccccc3cc2C(=O)O)NC1=O (configuration not stated)           inactive
6         CCCCNC(=O)n1c(NC(=O)OC)nc2ccccc21           inactive

INPUT: Dear colleague, could you share the recorded outcome for N#CC(CCc1ccc(Cl)cc1)(Cn1cncn1)c1ccccc1 (configuration not stated) when you have a moment?
OUTPUT: active

INPUT: Same read-out for CCCCC(CC)COC(=O)c1ccccc1C(=O)OCC(CC)CCCC (configuration not stated) ?
OUTPUT: inactive

INPUT: Same read-out for `CCOP(=S)(OCC)SCn1c(=O)oc2cc(Cl)ccc21` ?
OUTPUT: inactive

INPUT: Same read-out for `CN(C)C(=S)SSC(=S)N(C)C` ?
OUTPUT: inactive

INPUT: Same read-out for CCOC(=O)CC(SP(=S)(OC)OC)C(=O)OCC (configuration not stated) ?
OUTPUT: inactive

INPUT: Same read-out for `CON(C)C(=O)Nc1ccc(Cl)c(Cl)c1` ?
OUTPUT: inactive

###

Assay: APR_HepG2_MitoMembPot_72hr: Apredica 72-hour HepG2 Assay for Mitochondrial Membrane Potential (AID 2282917)
Details: imaging, actives raise or lower the signal
Active and inactive are the calls of the source. The calls were made as follows: active = hit-call score of the fitted dose curve at least 0.9, where 1 is the maximum; inactive = score below 0.9.
Just give me one of these, please: active, inactive

> print(dat)
                                   compound  qualitative.label
1  CC1COC(Cn2cncn2)(c2ccc(Oc3ccc(Cl)cc3)cc2Cl)O1 (centres undefined)             active
2  CCCN(CCC)c1c([N+](=O)[O-])cc(S(N)(=O)=O)cc1[N+](=O)[O-]           inactive
3  C=CC1(C)OC(=O)N(c2cc(Cl)cc(Cl)c2)C1=O (centres undefined)           inactive
4  OC(c1ccc(Cl)cc1)(c1cncnc1)c1ccccc1Cl (centres undefined)           inactive
5          COP(N)(=O)SC (centres undefined)           inactive
6                        Oc1ccccc1-c1ccccc1           inactive

INPUT: Dear colleague, could you share the recorded outcome for `COC(=O)N(OC)c1ccccc1COc1ccn(-c2ccc(Cl)cc2)n1` when you have a moment?
OUTPUT: active

INPUT: Same read-out for `COC(=O)c1ccccc1C(=O)OC` ?
OUTPUT: inactive

INPUT: Same read-out for `CCCCOC(=O)c1ccccc1C(=O)OCCCC` ?
OUTPUT: inactive
